These data points were gathered from patent US20240270857A1.

Molecular target: T1, IL-36R naturally expressed on OVCAR8 cells and on normal human epidermal keratinocytes (NHK cells) (human, UniProt Q9HB29 20-575)
T1 sequence (looked up): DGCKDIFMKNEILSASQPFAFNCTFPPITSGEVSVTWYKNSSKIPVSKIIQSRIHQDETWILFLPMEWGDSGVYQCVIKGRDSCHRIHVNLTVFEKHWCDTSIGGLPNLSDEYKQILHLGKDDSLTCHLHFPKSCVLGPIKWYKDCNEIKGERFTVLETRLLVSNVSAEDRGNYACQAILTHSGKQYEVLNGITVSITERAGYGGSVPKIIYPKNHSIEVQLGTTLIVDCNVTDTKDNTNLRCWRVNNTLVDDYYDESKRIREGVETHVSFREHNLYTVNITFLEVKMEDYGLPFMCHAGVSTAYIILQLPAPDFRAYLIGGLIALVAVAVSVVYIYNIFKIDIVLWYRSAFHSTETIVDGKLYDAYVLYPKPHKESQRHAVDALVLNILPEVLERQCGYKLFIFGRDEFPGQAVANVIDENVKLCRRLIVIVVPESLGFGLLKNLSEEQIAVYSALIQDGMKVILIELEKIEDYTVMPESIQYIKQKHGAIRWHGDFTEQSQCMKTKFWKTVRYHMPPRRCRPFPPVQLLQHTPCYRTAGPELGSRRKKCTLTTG
Experiment: cell-based or functional assay
Maximum inhibition rate %; hIL36γ; IL-8 production listing for selected binders.
reportedMetric: Maximum inhibition rate %; hIL36γ; IL-8 production (%)

* hz84C4-2.5 (antibody, human IgG4 S228P, kappa, V domains shown, Humanized, human IgG4 / kappa) VH: QVQLVQSGAEVKKPGASVKVSCKVSGYFFTSYWMNWVNQAPGQGLEWMGMIHPYDSETRLAQKFKGRVTMTVDKSTSTVYMELSSLRSEDTAVYYCASSTTAFAYWGQGTLVTVSS VL: DIQMTQSPSSLSASVGDRVTITCRASQDIGNALNWLQQKPGKAPKRLIYATSSLDPGVPSRFSGSRSGTDYTLTISSLQPEDFATYYCLQYASSPYTFGQGTKVEIKR | 99.7
* hz84C4-1.5 (antibody, human IgG4 S228P, kappa, V domains shown, Humanized, human IgG4 / kappa) VH: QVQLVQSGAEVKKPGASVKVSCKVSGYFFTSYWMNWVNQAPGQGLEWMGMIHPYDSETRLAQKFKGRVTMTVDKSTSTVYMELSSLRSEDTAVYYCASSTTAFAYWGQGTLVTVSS VL: DIQMTQSPSSLSASVGDRVTITCRASQDIGNALNWYQQKPGKAPKRLIYATSSLDPGVPSRFSGSRSGTDFTLTISSLQPEDFATYYCLQYASSPYTFGQGTKVEIKR | 99.6
* hz84C4-1.2 (antibody, human IgG4 S228P, kappa, V domains shown, Humanized, human IgG4 / kappa) VH: QVQLVQSGAEVKKPGASVKVSCKASGYFFTSYWMNWVRQAPGQGLEWMGYIHPYDSETRYAQKFQGRVTMTVDKSTSTVYMELSSLRSEDTAVYYCASSTTAFAYWGQGTLVTVSS VL: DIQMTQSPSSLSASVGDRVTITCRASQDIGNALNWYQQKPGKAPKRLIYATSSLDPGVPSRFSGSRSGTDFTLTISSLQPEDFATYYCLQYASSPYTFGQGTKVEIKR | 99.5
* hz84C4-1.3 (antibody, human IgG4 S228P, kappa, V domains shown, Humanized, human IgG4 / kappa) VH: QVQLVQSGAEVKKPGASVKVSCKASGYFFTSYWMNWVRQAPGQGLEWMGMIYPYDSETRYAQKFQGRVTMTVDKSTSTVYMELSSLRSEDTAVYYCASSTTAFAYWGQGTLVTVSS VL: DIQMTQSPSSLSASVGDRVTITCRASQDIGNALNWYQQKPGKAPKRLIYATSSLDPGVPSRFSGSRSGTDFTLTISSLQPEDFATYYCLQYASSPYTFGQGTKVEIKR | 59.5
